Attribute: viability at 2.5 µM
# Tested on: T. brucei brucei BSF
# measurement.notes: T. brucei BSF viability, resazurin reduction
# Format: cell-based, Trypanosoma brucei brucei
# details: Trypanosoma brucei, 2.5 µM; read-out: viability, T.brucei (2.5 µM)
# Procedure: T. brucei brucei (strain 427 Lister) blood stream form (BSF) parasites were passaged in complete HMI-9 media supplemented with 10% FCS, Pen-Strep (0.1%) and 2-mercaptoethanol (0.014 v/v) and kept in a 37° C CO2 incubator in filter-cap flasks. Viability of T. brucei brucei BSF and T. cruzi trypomastigotes was assayed with fluorescence resazurin reduction assay, essentially as described above. […]
reported.metric: viability at 2.5 µM (%)

1) N[C@@H](Cc1ccccc1)[C@@H](O)CNc1ccc(F)cc1 | 71.2
2) CC(C)(C)OC(=O)NC(Cc1ccccc1)C(O)CNc1ccc(C(C)(C)C)cc1 (stereo not drawn) | 71.2
3) Cc1cccc(C)c1NC[C@H](O)[C@@H](N)Cc1ccccc1 | 70.5
